- experiment description: qHTS assay to identify small molecule antagonists of the sonic hedgehog signaling (Shh) pathway (AID 1259369); further: nearly all actives have a fitted effect of over 45% in size; further: potency means the concentration at half of the fitted maximal effect
- assay setup: NIH/3T3 Gli1-Luc reporter, Shh antagonist, luminescence 24 h; series mostly up to 92.4 µM
Records with an inconclusive call do not appear. Calls of active or inactive are those of the source. The call rests on the fitted dose curve.
property name: Potency

Completed entries (count: 5):
Cc1ccccc1C(=O)O
inactive
C[C@H]1O[C@@H](n2cc(F)c(=O)[nH]c2=O)[C@H](O)[C@@H]1O
inactive
COc1cc(C)cc(O)c1
inactive
CSc1nc(NC2CC2)nc(NC(C)(C)C)n1
1.54 µM (active)
Cc1c(F)cc2c(=O)c(C(=O)O)cn3c2c1CCC3C (stereo unspecified)
inactive

Moving on to another molecule below.
QUERY: Return the recorded Potency value; entry: OC[C@H]1O[C@@H]2O[C@H]3[C@H](O)[C@@H](O)[C@@H](O[C@H]4[C@H](O)[C@@H](O)[C@@H](O[C@H]5[C@H](O)[C@@H](O)[C@@H](O[C@H]6[C@H](O)[C@@H](O)[C@@H](O[C@H]7[C@H](O)[C@@H](O)[C@@H](O[C@H]8[C@H](O)[C@@H](O)[C@@H](O[C@H]9[C@H](O)[C@@H](O)[C@@H](O[C@H]1[C@H](O)[C@H]2O)O[C@@H]9CO)O[C@@H]8CO)O[C@@H]7CO)O[C@@H]6CO)O[C@@H]5CO)O[C@@H]4CO)O[C@@H]3CO
RESULT: inactive

----------
- test system: Luciferin 4-monooxygenase (Photinus pyralis)
- experiment description: qHTS assay to identify small molecule inhibitors of firefly luciferase (AID 1224835); further: nearly all actives have a fitted effect of over 25% in size
- assay setup: purified P. pyralis luciferase, luminescence inhibition; series mostly up to 115 µM
Records with an inconclusive call do not appear. Calls of active or inactive are those of the source. The call rests on the fitted dose curve; in most records, active means well fitted inhibition curve with a large enough effect in the repeat runs; inconclusive means weak or mixed curves; inactive means flat fitted curve, though single readings scatter.
Just give me one of these, please: active, inactive

QUERY: Per the records of this test, what outcome belongs to C[N+](C)(C)CC[N+]1(C)Cc2c(Cl)c(Cl)c(Cl)c(Cl)c2C1 ?
RESULT: inactive

QUERY: Per the records of this test, what outcome belongs to Nc1nc(F)nc2c1ncn2[C@@H]1O[C@H](CO)[C@@H](O)[C@@H]1O ?
RESULT: inactive

QUERY: Per the records of this test, what outcome belongs to CCCc1ccccc1O ?
RESULT: inactive

QUERY: Per the records of this test, what outcome belongs to N[C@@H](CS)C(=O)O ?
RESULT: inactive

QUERY: Per the records of this test, what outcome belongs to CC(C)=CC(=O)O ?
RESULT: inactive

QUERY: Per the records of this test, what outcome belongs to COC(=O)[C@H]1[C@H]2C[C@@H]3c4[nH]c5cc(OC)ccc5c4CCN3C[C@H]2C[C@@H](OC(=O)COc2ccc(OC)cc2)[C@@H]1OC ?
RESULT: inactive

QUERY: Per the records of this test, what outcome belongs to CCCOc1ccccc1-c1nc2n[nH]nc2c(=O)[nH]1 ?
RESULT: inactive

QUERY: Per the records of this test, what outcome belongs to CCCCNc1ccccc1 ?
RESULT: inactive

QUERY: Per the records of this test, what outcome belongs to Nc1ncnc2c1ncn2Cc1c(F)cccc1Cl ?
RESULT: inactive

QUERY: Per the records of this test, what outcome belongs to CC(C)COC(=O)c1ccccc1O ?
RESULT: inactive

QUERY: Per the records of this test, what outcome belongs to CC(C)CCCC(C)CCCC(C)CCCCC(C)CCCC(C)CCCC(C)C (stereo not drawn) ?
RESULT: inactive

QUERY: Per the records of this test, what outcome belongs to NC(CS)C(=O)O (stereo not drawn) ?
RESULT: inactive

QUERY: Per the records of this test, what outcome belongs to C1=C\CC/C=C\CC/C=C\CC/1 ?
RESULT: inactive

QUERY: Per the records of this test, what outcome belongs to O=C(O)c1ccc[n+]([O-])c1 ?
RESULT: inactive

QUERY: Per the records of this test, what outcome belongs to CCCCC1CCCCC(=O)O1 (stereo not drawn) ?
RESULT: inactive

QUERY: Per the records of this test, what outcome belongs to O=c1[nH]c(=O)n([C@H]2O[C@H](CO)[C@@H](O)[C@@H]2O)cc1/C=C\Br ?
RESULT: inactive

QUERY: Per the records of this test, what outcome belongs to Nc1ccn(C2CO[C@H](CO)O2)c(=O)n1 (stereo partly drawn) ?
RESULT: inactive

QUERY: Per the records of this test, what outcome belongs to CC(C=O)Cc1ccc(C(C)C)cc1 (stereo not drawn) ?
RESULT: inactive

QUERY: Per the records of this test, what outcome belongs to CCCC(C)C(=O)O (stereo not drawn) ?
RESULT: inactive

QUERY: Per the records of this test, what outcome belongs to CC(=O)N[C@@H](CCC(N)=O)C(=O)O ?
RESULT: inactive

QUERY: Per the records of this test, what outcome belongs to CC1=CC(C)C(C=O)C(C)C1 (stereo not drawn) ?
RESULT: inactive

QUERY: Per the records of this test, what outcome belongs to CN1[C@@H]2CC[C@H]1CC(NC(=O)n1c(=O)[nH]c3ccccc31)C2 (stereo partly drawn) ?
RESULT: inactive

QUERY: Per the records of this test, what outcome belongs to CCCCCCCCCCCCCCCCCCOCC(O)CO (stereo not drawn) ?
RESULT: inactive

QUERY: Per the records of this test, what outcome belongs to O=C(O)CCNC(=O)c1ccc(N=Nc2ccc(O)c(C(=O)O)c2)cc1 ?
RESULT: active

QUERY: Per the records of this test, what outcome belongs to CC(C)(O)C(=O)c1ccc(OCCO)cc1 ?
RESULT: inactive

QUERY: Per the records of this test, what outcome belongs to CC(C)CCOC(=O)CC(C)C ?
RESULT: inactive

QUERY: Per the records of this test, what outcome belongs to CCCCCCOC(=O)CC(CC(=O)OCCCCCC)(OC(=O)CCC)C(=O)OCCCCCC ?
RESULT: inactive

QUERY: Per the records of this test, what outcome belongs to CC(CCO)CCCC(C)(C)O (stereo not drawn) ?
RESULT: inactive

QUERY: Per the records of this test, what outcome belongs to [O-][N+](=Nc1ccccc1)c1ccccc1 ?
RESULT: active

QUERY: Per the records of this test, what outcome belongs to C[C@H](O)C(=O)Nc1c(I)c(C(=O)NC(CO)CO)c(I)c(C(=O)NC(CO)CO)c1I ?
RESULT: inactive

QUERY: Per the records of this test, what outcome belongs to O=C(O)c1ccccc1-c1ccc(C(F)(F)F)cc1 ?
RESULT: inactive

QUERY: Per the records of this test, what outcome belongs to Cc1ccccc1Br ?
RESULT: inactive

QUERY: Per the records of this test, what outcome belongs to N#CCc1ccccc1[N+](=O)[O-] ?
RESULT: inactive

QUERY: Per the records of this test, what outcome belongs to CSc1ccc(C=O)cc1 ?
RESULT: inactive

QUERY: Per the records of this test, what outcome belongs to c1ccc2cnncc2c1 ?
RESULT: inactive

QUERY: Per the records of this test, what outcome belongs to CC/C=C\C#N ?
RESULT: inactive

QUERY: Per the records of this test, what outcome belongs to C=C(C)[C@@H]1CCC2=CC(=O)C[C@@H](C)[C@]2(C)C1 ?
RESULT: inactive

QUERY: Per the records of this test, what outcome belongs to COc1cc(CCC(C)=O)ccc1O ?
RESULT: inactive

QUERY: Per the records of this test, what outcome belongs to CC(=O)OC(C)(C)C ?
RESULT: inactive

QUERY: Per the records of this test, what outcome belongs to CC(=O)CCc1ccc(O)cc1 ?
RESULT: inactive

QUERY: Per the records of this test, what outcome belongs to COC(=O)CCCC(=O)O ?
RESULT: inactive

QUERY: Per the records of this test, what outcome belongs to CCC(C(=O)NC(N)=O)c1ccccc1 (stereo not drawn) ?
RESULT: inactive

QUERY: Per the records of this test, what outcome belongs to COCc1ccc(COC)cc1 ?
RESULT: inactive

QUERY: Per the records of this test, what outcome belongs to N#CCN(CC#N)CCN(CC#N)CC#N ?
RESULT: inactive

QUERY: Per the records of this test, what outcome belongs to CC(C)(C)N(CCO)CCO ?
RESULT: inactive

QUERY: Per the records of this test, what outcome belongs to CCn1c(=O)c2c(nc(/C=C/c3ccc(OC)c(OC)c3)n2C)n(CC)c1=O ?
RESULT: inactive

QUERY: Per the records of this test, what outcome belongs to CCCCCCCCC=O ?
RESULT: inactive

QUERY: Per the records of this test, what outcome belongs to CCCCCCOC(=O)c1ccccc1O ?
RESULT: active
